- Test system: colo320 colorectal cancer tumor model
- Assay Setup: 15 mg/kg once a week for four weeks; Table 3
Where a SMILES comes first, the peptide text is derived from it. The star is where a group is joined. NEt(2-(20S-CPT-7-yl)ethyl) = CCN(CCc1c2c(nc3ccccc13)-c1cc3c(c(=O)n1C2)COC(=O)[C@]3(O)CC)*; Belotecan = CC[C@@]1(O)C(=O)OCc2c1cc1n(c2=O)Cc2c-1nc1ccccc1c2CCN(C(C)C)*; X6 = CCCCCN(CCc1c2c(nc3ccccc13)-c1cc3c(c(=O)n1C2)COC(=O)[C@]3(O)CC)*; X1 = CC[C@@]1(O)C(=O)OCc2c1cc1n(c2=O)Cc2c-1nc1ccccc1c2CCN(C1CCC1)*; X3 = CC[C@@]1(O)C(=O)OCc2c1cc1n(c2=O)Cc2c-1nc1ccccc1c2CCN(C1CC1)*; Propanoyl(3-maleimido) = O=C1C=CC(=O)N1CCC(=O)*; PEG6 = NCCOCCOCCOCCOCCOCCOCCC(=O)O
Quantity Name: Mouse weight (%)

Solved entries:
CCc1c2c(nc3ccc(OC(=O)N4CCC(N5CCCCC5)CC4)cc13)-c1cc3c(c(=O)n1C2)COC(=O)[C@]3(O)CC [Irinotecan, reference compound]	+35%
CC[C@@]1(O)C(=O)OCc2c1cc1n(c2=O)Cc2c-1nc1ccccc1c2CCN(C(=O)CNC(=O)[C@H](Cc1ccccc1)NC(=O)CNC(=O)CNC(=O)CCOCCOCCOCCOCCOCCOCCNC(=O)CCN1C(=O)C=CC1=O)C1CC1 [MI-6PEG-GGFG-D6] ({Propanoyl(3-maleimido)-PEG6}-GGFG-X3)	+29%
CCN(CCc1c2c(nc3ccccc13)-c1cc3c(c(=O)n1C2)COC(=O)[C@]3(O)CC)C(=O)CNC(=O)[C@H](CCCCN)NC(=O)[C@H](C)NC(=O)[C@H](C)NC(=O)CCOCCOCCOCCOCCOCCOCCNC(=O)CCN1C(=O)C=CC1=O [MI-6PEG-AAKG-D2] ({Propanoyl(3-maleimido)-PEG6}-AAKG-{NEt(2-(20S-CPT-7-yl)ethyl)})	+27%
CCCCCN(CCc1c2c(nc3ccccc13)-c1cc3c(c(=O)n1C2)COC(=O)[C@]3(O)CC)C(=O)CNC(=O)[C@H](CC(N)=O)NC(=O)[C@H](C)NC(=O)[C@H](C)NC(=O)CCOCCOCCOCCOCCOCCOCCNC(=O)CCN1C(=O)C=CC1=O [MI-6PEG-AANG-D4] ({Propanoyl(3-maleimido)-PEG6}-AANG-X6)	+40%
CC[C@@]1(O)C(=O)OCc2c1cc1n(c2=O)Cc2c-1nc1ccccc1c2CCN(C(=O)CNC(=O)[C@H](Cc1ccccc1)NC(=O)CNC(=O)CNC(=O)CCOCCOCCOCCOCCOCCOCCNC(=O)CCN1C(=O)C=CC1=O)C1CCC1 [MI-6PEG-GGFG-D7] ({Propanoyl(3-maleimido)-PEG6}-GGFG-X1)	+28%

[in] What does the record list as Mouse weight (%) for CC[C@@]1(O)C(=O)OCc2c1cc1n(c2=O)Cc2c-1nc1ccccc1c2CCN(C(=O)CNC(=O)[C@H](Cc1ccccc1)NC(=O)CNC(=O)CNC(=O)CCOCCOCCOCCOCCOCCOCCNC(=O)CCN1C(=O)C=CC1=O)C(C)C [MI-6PEG-GGFG-Belotecan] ({Propanoyl(3-maleimido)-PEG6}-GGFG-Belotecan) ?
[out] +27%

[in] What does the record list as Mouse weight (%) for CC[C@@]1(O)C(=O)OCc2c1cc1n(c2=O)Cc2c-1nc1ccccc1c2CCN(C(=O)CNC(=O)[C@H](CC(N)=O)NC(=O)[C@H](C)NC(=O)[C@H](C)NC(=O)CCOCCOCCOCCOCCOCCOCCNC(=O)CCN1C(=O)C=CC1=O)C1CC1 [MI-6PEG-AANG-D6] ({Propanoyl(3-maleimido)-PEG6}-AANG-X3) ?
[out] +27%
